Hey, just so you know, these numbers are from patent US20250230247A1.

Below, each entry is listed alongside its reported X = 470.
Target: T1, human Dectin-1 (biosensor tests of Tables 3, 4A and 9; construct not stated) (human, UniProt Q9BXN2 66-247, limits assumed)
T1 construct: also called hDectin-1
T1 sequence (looked up): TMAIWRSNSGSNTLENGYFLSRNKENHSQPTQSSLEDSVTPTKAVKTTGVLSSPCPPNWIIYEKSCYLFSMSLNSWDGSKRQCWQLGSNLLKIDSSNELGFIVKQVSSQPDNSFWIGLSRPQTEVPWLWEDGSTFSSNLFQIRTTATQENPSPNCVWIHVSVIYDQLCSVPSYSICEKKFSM
Test: Octet response; note: time not given here

// solved cases for X = 470 follow
2M24A.1.11 hFab (Fab, V domains shown, Fab; also called 2M24.1.11) VH: QVQLVQSGAEVKKPGASVKVSCKSSGYTFTAYYIHWVRQAPGQGLEWMGWINPNSGDTNYAQKFQGRITMTRDTSISTAYLELSRLRSDDTAVFYCARNSGSYSFGYWGQGTLVTVSS VL: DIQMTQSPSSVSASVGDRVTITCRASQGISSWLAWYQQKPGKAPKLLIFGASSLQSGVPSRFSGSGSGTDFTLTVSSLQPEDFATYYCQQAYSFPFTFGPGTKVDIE ... 0.418
2M24A.1.26 (Fab, V domains shown, Fab; also called 2M24.1.26) VH: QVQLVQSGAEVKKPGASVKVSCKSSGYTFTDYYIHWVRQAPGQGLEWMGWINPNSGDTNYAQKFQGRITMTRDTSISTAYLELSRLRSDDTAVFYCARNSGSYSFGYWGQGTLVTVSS VL: DIQMTQSPSSVSASVGDRVTITCRASQGISSWLAWYQQKPGKAPKLLIFGASSLQSGVPSRFSGSGSGTDFTLTVSSLQPEDFATYYCQQAYSAPFTFGPGTKVDIE ... 0.018

What does the record list as X = 470 for 2M24A.1.13 hFab (Fab, V domains shown, Fab; also called 2M24.1.13) VH: QVQLVQSGAEVKKPGASVKVSCKSSGYTFTDYYIHWVRQAPGQGLEWMGWINPNSGDTNYAQKFQGRITMTRDTSISTAYLELSRLRSDDTAVFYCARASGSYSFGYWGQGTLVTVSS VL: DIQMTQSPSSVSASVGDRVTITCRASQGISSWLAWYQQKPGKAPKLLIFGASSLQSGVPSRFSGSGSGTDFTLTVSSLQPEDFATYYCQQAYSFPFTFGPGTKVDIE ? 0
